B1: Caulobacter ParB omega fusion; a variant is named by its letters at X, in order, B8GW30 (parent)
chain: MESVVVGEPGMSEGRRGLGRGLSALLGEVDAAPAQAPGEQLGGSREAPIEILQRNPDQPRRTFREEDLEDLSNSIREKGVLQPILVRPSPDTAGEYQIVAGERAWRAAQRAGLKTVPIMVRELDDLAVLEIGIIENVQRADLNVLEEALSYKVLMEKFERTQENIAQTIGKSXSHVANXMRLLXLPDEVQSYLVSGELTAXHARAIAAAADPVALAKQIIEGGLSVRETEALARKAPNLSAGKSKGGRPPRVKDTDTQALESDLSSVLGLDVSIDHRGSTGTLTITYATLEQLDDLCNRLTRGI

# Variants of: B1
# protocolText: one-hybrid fitness for binding NBS DNA (the Noc-binding site; scaled: cognate 1, non-cognate 0); higher = stronger binding
# conditionContext: with NBS DNA site
In all, about 81,000 sequences were measured (“one-hybrid fitness for binding NBS DNA”: median about -0.1, highest 2% from about 0.36 on). The full list was thinned out, with the highest values kept by preference.
valueType: one-hybrid fitness for binding NBS DNA

Would you please look over these solved cases?
QAFS ... 0.218
YKRA ... ≤ 0.2
GMVQ ... ≤ 0.2

Need one-hybrid fitness for binding NBS DNA for each of these variants.
1. RPVC
2. QHAH
3. QHAR
4. RCSK
5. QAAD
6. RRKC
7. RRYK
8. RRVC

Response:
≤ 0.2
≤ 0.2
0.523
≤ 0.2
≤ 0.2
0.375
0.202
0.414

Need one-hybrid fitness for binding NBS DNA for each of these variants.
1. QAAN
2. FHRT
3. QHFS
4. RRDK
5. QDQP
6. RRSK
7. QHFN

Response:
["≤ 0.2", "≤ 0.2", "≤ 0.2", "≤ 0.2", "≤ 0.2", 0.378, "≤ 0.2"]

Need one-hybrid fitness for binding NBS DNA for each of these variants.
1. RSSK
2. QDAY
3. SQHR

Response:
≤ 0.2
≤ 0.2
≤ 0.2

Query: # one-hybrid fitness for binding NBS DNA lookup, item QHFR
Response: 0.408

Where these numbers come from: a collection of fitness landscapes (doi:10.1016/j.celrep.2020.107928)
